- Test summary: adipocyte viability effects, profiling panel, cell-based, 3T3-L1 adipocytes, calcein-AM fluorescence, 48 h, basal (AID 1163); further: test concentration not given here
- Condition context: 3T3-L1 adipocytes viability, higher = more signal
Label Condition met when z-score < 0.02; otherwise Condition not met.

>>> qualitative_label("CN(C)C(=O)[C@]1(Cc2ccccc2N=[N+]=[N-])N=C(c2ccc(OCCCO)cc2)O[C@@H]1c1ccccc1")
"Condition met"
>>> qualitative_label("CC1CC/C=C\\[C@H]2OC34C=CCN(C(C)(C)C)C(=O)[C@H]3N(CCCCCCO)C(=O)[C@@H]4C2C(=O)O1 (stereo partly drawn)")
"Condition not met"

Next, consider the following compound.
Q. Hi there! Is z-score for COc1cc2c(cc1O)C(C1CC1)N(Cc1cc3c(cc1Br)OCO3)CC2 (stereo not drawn) below 0.02, do you know?
A. Condition met
